Tested on: antibodies in sera from SARS patients (sera 1a, 1b, 2, 6, 37, 62, London, SARS-yellow, SARS-green)
Assay type: binding, human
Parameters: unit not given here
If the reported Binding of serum 1b to looped/cyclic peptides of protein N of SARS-CoV Urbani equals or exceeds 0.2, assign 1. If not, assign 0.

{"columns": ["CHAIN", "GROUP_LABEL"],
 "data": [
  ["QTQGNFGDQDLIRQG", 1],
  ["ETALALLLLDRLNQL", 1],
  ["AFFGMSRIGMEVTPS", 1],
  ["QQGQTVTKKSAAEAS", 1],
  ["GTWLTYHGAIKLDDK", 0],
  ["TALTQHGKEELRFPR", 1],
  ["DQDLIRQGTDYKHWP", 0],
  ["SSRSRGNSRNSTPGS", 0],
  ["LDRLNQLESKVSGKG", 1],
  ["SAAEASKKPRQKRTA", 0],
  ["RGQGVPINTNSGPDD", 0],
  ["LLPAADMDDFSRQLQ", 0],
  ["LIRQGTDYKHWPQIA", 1],
  ["GGETALALLLLDRLN", 1],
  ["TDSTDNNQNGGRNGA", 1],
  ["PKGFYAEGSRGGSQA", 1],
  ["RPKQRRPQGLPNNTA", 0],
  ["DFSRQLQNSMSGASA", 0],
  ["AEASKKPRQKRTATK", 0],
  ["EQTQGNFGDQDLIRQ", 0],
  ["YKTFPPTEPKKDKKK", 0],
  ["RNGARPKQRRPQGLP", 0]
]}

The origin of these recorded values is patent US20070128217A1.
